The reported numbers originate from PubChem BioAssay AID1159580.

- ASSAY NAME: chemical genetic growth profiling, strain panel (AID 1159580);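 note: tested at 20 µM; growth read once vehicle control cultures reached saturation at 30 °C; 1 = growth at the plate median or of vehicle wells; lower values mean less growth of the strain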
- ASSAY CONDITIONS: S. cerevisiae deletion strains, growth OD, locus YMR129W
About 2,000 (36%) of roughly 5,500 compounds were called active. Not shown: some 18% with an inconclusive outcome. Cut-off read from the data, not from the text of the source: active = normalized growth mostly below about 0.91 (no sharp cut-off); inconclusive = no clear call, values can overlap the other calls; inactive = mostly above about 0.92. The list shows a part of the results.
Answer with one of the outcomes active, inactive

Examples from the recorded data:
| COMPOUND | CLASS |
| --- | --- |
| COc1ccc([C@H]2COc3c(ccc(O)c3OC)C2)c(OC)c1O | inactive |
| COc1cc(/C=C/C(=O)N2CCC=CC2=O)cc(OC)c1OC | inactive |
| CN(C)C(=N)N=C(N)N | inactive |

Query string: Hi team, can someone confirm the assay call for C#C[C@]1(O)CCC2C3CCC4=Cc5oncc5C[C@]4(C)C3CC[C@@]21C (stereo partly drawn) ?
Result string: inactive

----------
- ASSAY NAME: chemical genetic growth profiling, strain panel (AID 1159580);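 note: tested at 20 µM; growth read once vehicle control cultures reached saturation at 30 °C; 1 = growth at the plate median or of vehicle wells; lower values mean less growth of the strain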
- ASSAY CONDITIONS: S. cerevisiae deletion strains, growth OD, locus YHR030C, strain SLT2, stronger effect = lower value
Hit rate of the full screen: of about 5,500 compounds, about 2,000 (36%) were called active. Roughly 18% stayed inconclusive and do not appear here. The list shows a part of the results.
Give measured normalized growth for each item. Keep answers brief.
One number for each entry.

| MOLECULE | normalized growth |
| --- | --- |
| CN1c2ccccc2C(C)(C)C12C=Cc1cc(O)ccc1O2 (stereo not given) | 0.897 |
| C/C(=N/NC(=O)c1ccc(C(C)(C)C)cc1)c1ccccc1O | 0.876 |
| c1cc(C2CCCCC2)ccc1C1CCCCC1 | 0.878 |
| Cc1nn(-c2ccccc2)nc1C(=O)NNC(=S)Nc1ccc(Cl)cc1 | 0.889 |

Query string: I'd like to know its normalized growth. The molecule in question is O=C(NNC(=S)Nc1ccc(Cl)cc1)c1ncc(C(F)(F)F)cc1Cl
Result string: 0.901

----------
- ASSAY NAME: chemical genetic growth profiling, strain panel (AID 1159580);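 note: tested at 20 µM; growth read once vehicle control cultures reached saturation at 30 °C; 1 = growth at the plate median or of vehicle wells; lower values mean less growth of the strain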
- ASSAY CONDITIONS: S. cerevisiae deletion strains, growth OD, locus YDR159W, strain sac3, stronger effect = lower value
Among all 5,500 compounds or so, about 2,000 (36%) were called active. Inconclusive results (about 18%) are left out. Some of the results follow.
Give measured normalized growth for each item. Keep answers brief.
Answers are plain numbers.

Reference set, count: 5
| MOLECULE | normalized growth |
| --- | --- |
| O=C(O)[C@H](O)[C@@](O)(Cc1ccc(O)cc1)C(=O)O | 1 |
| Cc1onc(-c2c(Cl)cccc2Cl)c1C(=O)N[C@@H]1C(=O)N2[C@@H]1SC(C)(C)[C@@H]2C(=O)O | 0.975 |
| NC(=O)NO | 1.01 |
| CC1(C)S[C@@H]2[C@H](NC(=O)[C@H](C(=O)O)c3cccs3)C(=O)N2[C@H]1C(=O)O | 1.01 |
| CC1(C)S[C@@H]2[C@H](NC(=O)Cc3ccccc3)C(=O)N2[C@H]1C(=O)O | 1.02 |

Now consider a different molecule.
Query string: I'd like to know its normalized growth. The molecule in question is CCc1cccc2c3c([nH]c12)C(CC)(CC(=O)O)OCC3 (stereo unspecified)
Result string: 0.976

----------
- ASSAY NAME: chemical genetic growth profiling, strain panel (AID 1159580);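 note: tested at 20 µM; growth read once vehicle control cultures reached saturation at 30 °C; 1 = growth at the plate median or of vehicle wells; lower values mean less growth of the strain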
- ASSAY CONDITIONS: S. cerevisiae deletion strains, growth OD, locus YNL307C, strain MCK1 (second series)
Among all 5,500 compounds or so, about 2,000 (36%) were called active. Inconclusive results (about 18%) are left out. Cut-off read from the data, not from the text of the source: active = normalized growth mostly below about 0.91 (no sharp cut-off); inconclusive = no clear call, values can overlap the other calls; inactive = mostly above about 0.92. The list shows a part of the results.
Answer with one of the outcomes YES for active, NO for inactive

Examples from the recorded data:
| STRUCTURE SMILES | CLASS |
| --- | --- |
| C/C(=N/NC(=O)c1ccc(C(C)(C)C)cc1)c1ccccc1O | NO |
| Cn1nc(-c2ccccc2)c(O)c(N=Nc2ccccc2)c1=O | NO |
| Clc1ccc(N/N=C\c2sccc2Oc2ccccc2)cc1 | YES |
| CS/C(Nc1cccc(C(F)(F)F)c1)=C(/C#N)S(=O)(=O)c1ccc(Cl)cc1 | NO |

Turning now to a further compound:
Query string: Hi team, can someone confirm the assay call for O=c1c(-c2ccccc2)c(O)c2cccc3c4ccccc4n1c23 ?
Result string: YES
